Test: Intrinsic hepatic clearance in human
Type: ADME
MEASURED_PARAMETER: CLH (mL/min/kg)

CC(O)(C#Cc1ccc(N2CCOCC2)c(Nc2ncnc3[nH]ccc23)c1)c1nccs1 (racemic) ... 30.6
CC(O)(C#Cc1ccc2c(c1)N(c1nc(N)ncc1Cl)CC2)c1nccs1 (configuration not stated) ... 38.6

###

Test: Elimination half life in human liver microsomes incubated for 10 mins followed by potassium phosphate buffer addition and measured after 5 to 60 mins by LC-MS/MS analysis
Format: ADME, Microsome
Conditions: read-out: beta t1/2
MEASURED_PARAMETER: half-life (min)

CC(O)(C#Cc1ccc2c(c1)N(c1nc(N)ncc1Cl)CC2)c1nccs1 (configuration not stated) ... 33.9
CC(O)(C#Cc1ccc(N2CCOCC2)c(Nc2ncnc3[nH]ccc23)c1)c1nccs1 (racemic) ... 42.9
